B1: PRKX (parent)
chain: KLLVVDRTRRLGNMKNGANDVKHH

Variants of: B1
Experiment: protein stability index of a GFP-peptide fusion (GPS, HEK-293T) (PSI 1-6); higher = more stable;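 further: lentivirally expressed fusions sorted by FACS into six bins by GFP to DsRed ratio, PSI derived from sequencing read proportions per bin multiplied by bin number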
Conditions: c terminus: a fixed tail appended
Quick list: protein stability index per entry.
value_type: protein stability index

> print(dat)
           residue.sequence  result.number
1  KLLVVDRTRRLGNMKNGAMDVKHH           2.59
2  KLLVVDRTRRLGNMKNGSNDVKHH           3.27
3  KLLVVDRTRREGNMKNGANDVKHH            3.7
4  KLLVVDRTRRLGNMKNGANDVKHE           3.96
5  KLLVVDRTRRLGNEKNGANDVKHH            3.8
6  KLLVVDRTRRLNNMKNGANDVKHH            2.6
7  KKLVVDRTRRLGNMKNGANDVKHH           3.99
8  KLLVVDRTRRLGNMKNGANDVKHN           2.81
